Known IC50 of a selection of compounds
target: recombinant HIV reverse transcriptase (HIV RTR) (Human immunodeficiency virus type 1 group M subtype B); construct: recombinant HIV reverse transcriptase (HIV RTR); assay: Reverse Transcriptase Assay (incorporation of tritiated deoxyguanosine monophosphate into acid-precipitable cDNA); conditions: poly r(C).oligo d(G)12-18 and dGTP at about Km; 37° C., 45 minutes
I only need the number, in nM, no unit after it.

These solved cases illustrate the format of a correct answer.
CCc1cc(NCc2nc3c(Cl)ccc(Cl)c3o2)c(O)nc1C = 20
CCc1cc(NCc2nc3c(Cl)ccc(Cl)c3o2)c(=O)[nH]c1CO = 14

As a next step, examine the compound that follows.
Given item Cc1[nH]c(=O)c(NCc2nc3c(Cl)ccc(Cl)c3o2)cc1C(C)O (racemic) , the value recorded as its IC50 is 1050
